- Read-out: growth arrest and DNA damage 45 (GADD45A), GADD45A (gene 1647)
- assay.comment: LTEA_HepaRG_GADD45A: Life Technologies and Expression Analysis (LTEA) Assay for growth arrest and DNA damage 45 (GADD45A) using HepaRG (AID 2283458)
- study.conditions: mRNA level, 48 h; actives raise or lower the signal
Active and inactive are the calls of the source. How the source made its calls: active means hit-call score of the fitted dose curve at least 0.9, where 1 is the maximum; inactive means score below 0.9.
Outcome codes: 1 (active), 0 (inactive)

| compound | class.name |
| --- | --- |
| OCc1ccccc1 | 0 |
| O=C(O)c1cccc(C(=O)O)c1 | 0 |
| CCc1cccc(CC)c1N | 0 |
| O=C(NO)C1(NS(=O)(=O)c2ccc(Oc3ccc(F)cc3)cc2)CCOCC1 | 0 |
| NC(=O)N1c2ccccc2C=Cc2ccccc21 | 0 |
| CC(C)CCCCCCOC(=O)C1CCCCC1C(=O)OCCCCCCC(C)C (centres undefined) | 1 |
| O=C(O)c1cccc(C[C@@H]2COc3ccc(OCc4nc5cc(F)ccc5s4)cc3[C@@H]2O)c1 | 0 |
| CCCCCCOC(=O)CC(CC(=O)OCCCCCC)(OC(=O)CCC)C(=O)OCCCCCC | 0 |
| CCCCCCCCCC | 0 |

====

- tested.system: human MAP Kinase-Activated Protein Kinase 2 (MAPKAPK2), MAPKAPK2 (gene 9261) (UniProt P49137)
- Sequence (P49137 whole entry, looked up): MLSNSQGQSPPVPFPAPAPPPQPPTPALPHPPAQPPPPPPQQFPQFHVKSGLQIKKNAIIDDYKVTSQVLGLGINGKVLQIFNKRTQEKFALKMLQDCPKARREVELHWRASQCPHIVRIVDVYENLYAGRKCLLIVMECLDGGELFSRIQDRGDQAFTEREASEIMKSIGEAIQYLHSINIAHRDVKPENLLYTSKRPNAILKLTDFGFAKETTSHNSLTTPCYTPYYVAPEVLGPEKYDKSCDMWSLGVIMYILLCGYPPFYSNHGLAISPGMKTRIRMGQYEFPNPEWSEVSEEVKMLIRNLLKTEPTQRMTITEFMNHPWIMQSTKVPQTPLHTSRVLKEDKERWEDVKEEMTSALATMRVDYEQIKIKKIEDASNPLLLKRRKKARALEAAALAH
- assay.comment: NVS_ENZ_hMAPKAPK2: NovaScreen (NVS) Enzymatic Assay for human MAP Kinase-Activated Protein Kinase 2 (MAPKAPK2) (AID 2283178)
Inconclusive results are not listed. Active and inactive are the calls of the source. How the source made its calls: active means hit-call score of the fitted dose curve at least 0.9, where 1 is the maximum; inconclusive means response in the unintended direction; inactive means score below 0.9.
parameter.measured: outcome

| compound.structure | result |
| --- | --- |
| c1ccc2c(c1)-c1cccc3c1c-2cc1ccccc13 | inactive |
| Cc1ncc([C@@H](CCCCCCc2ccc3c(n2)NCCC3)CC(=O)O)cn1 | inactive |
| c1ccc2ncccc2c1 | inactive |
| c1ccc2cc3ccccc3cc2c1 | inactive |
| OC(CCl)CCl | inactive |

====

- Read-out: growth arrest and DNA damage 45 (GADD45B), GADD45B (gene 4616)
- assay.comment: LTEA_HepaRG_GADD45B: Life Technologies and Expression Analysis (LTEA) Assay for growth arrest and DNA damage 45 (GADD45B) using HepaRG (AID 2283461)
- study.conditions: mRNA level, 48 h; actives raise or lower the signal
Calls of active or inactive are those of the source. Rule for the calls: active = hit-call score of the fitted dose curve at least 0.9, where 1 is the maximum; inactive = score below 0.9.
Possible outcomes: active, inactive

| compound.structure | class.name |
| --- | --- |
| CCCCCCCCCC | inactive |
| Cn1c(=O)c2[nH]cnc2n(C)c1=O | inactive |
| OC[C@H]1O[C@@H]2O[C@H]3[C@H](O)[C@@H](O)[C@@H](O[C@H]4[C@H](O)[C@@H](O)[C@@H](O[C@H]5[C@H](O)[C@@H](O)[C@@H](O[C@H]6[C@H](O)[C@@H](O)[C@@H](O[C@H]7[C@H](O)[C@@H](O)[C@@H](O[C@H]1[C@H](O)[C@H]2O)O[C@@H]7CO)O[C@@H]6CO)O[C@@H]5CO)O[C@@H]4CO)O[C@@H]3CO | inactive |
| O=C(O)c1cccc(C[C@@H]2COc3ccc(OCc4nc5cc(F)ccc5s4)cc3[C@@H]2O)c1 | inactive |
| Cn1cc[nH]c1=S | inactive |
| c1ccc(C(O[C@@H]2CCCN(CCc3ccc4c(c3)OCO4)C2)c2ccccc2)cc1 | active |
| C[C@]12C=CC(=O)C=C1CC[C@H]1[C@@H]3C[C@@H](O)[C@](O)(C(=O)CO)[C@@]3(C)C[C@H](O)[C@@]12F | inactive |
| NC(N)=O | inactive |
| O=C1CN(N=Cc2ccc([N+](=O)[O-])o2)C(=O)N1 | inactive |
| CCOc1ccc2[nH]cc(C(=O)NCc3ccccc3)c(=O)c2n1 | inactive |
| OCc1ccccc1 | inactive |
| Cc1ccc(S(=O)(=O)NC(=O)NN2CCCCCC2)cc1 | inactive |

====

- tested.system: Peroxisome proliferator-activated receptor gamma (Homo sapiens) (UniProt P37231)
- Sequence (P37231 whole entry, looked up): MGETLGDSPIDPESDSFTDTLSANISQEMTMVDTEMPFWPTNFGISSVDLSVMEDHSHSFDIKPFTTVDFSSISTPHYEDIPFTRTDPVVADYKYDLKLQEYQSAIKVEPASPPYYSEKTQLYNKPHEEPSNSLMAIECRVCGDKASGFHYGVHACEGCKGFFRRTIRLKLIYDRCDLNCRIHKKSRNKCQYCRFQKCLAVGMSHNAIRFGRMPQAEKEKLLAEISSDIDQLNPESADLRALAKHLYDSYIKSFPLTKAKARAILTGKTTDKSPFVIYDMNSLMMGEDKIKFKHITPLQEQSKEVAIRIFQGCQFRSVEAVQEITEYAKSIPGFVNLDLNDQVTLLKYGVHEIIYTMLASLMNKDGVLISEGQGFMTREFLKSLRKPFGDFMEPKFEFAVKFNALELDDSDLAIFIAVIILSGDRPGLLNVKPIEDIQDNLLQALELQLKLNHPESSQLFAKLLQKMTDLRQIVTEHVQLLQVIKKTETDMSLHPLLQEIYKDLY
- assay.comment: ATG_PPARg_TRANS: Attagene TRANS-FACTORIAL HepG2 Assay for human Peroxisome Proliferator-activated Receptor-gamma (PPARg) (AID 2283007)
Inconclusive results are not listed. The source made the active and inactive calls. Rule for the calls: active = hit-call score of the fitted dose curve at least 0.9, where 1 is the maximum; inconclusive = response in the unintended direction; inactive = score below 0.9.
Labels: TRUE for active, FALSE for inactive

| compound | class.name |
| --- | --- |
| CCCCCCCCCCCCCCCCOS(=O)(=O)O | TRUE |
| CCOc1ccc2[nH]cc(C(=O)NCc3ccccc3)c(=O)c2n1 | FALSE |
| C[C@@H](Oc1ccc(CNC(=O)c2cccnc2Oc2ccc3c(c2)OCO3)c(F)c1)C(=O)O | TRUE |
| COc1cc(C(C)C)c2c(c1)S(=O)(=O)N(COc1cc(=O)n3cccc(OCCN4CCCCC4)c3n1)C2=O | TRUE |
| CC(=O)c1ccccc1 | FALSE |
| FC(F)(F)COC(OCC(F)(F)F)OCC(F)(F)F | FALSE |
| O=C1CN(N=Cc2ccc([N+](=O)[O-])o2)C(=O)N1 | FALSE |
| CCCc1ccccc1 | FALSE |
| OCc1c[nH]c2ccccc12 | TRUE |
| CCn1nc(C)c2c1C(=O)NCC(c1ccc(O)cc1)=N2 | TRUE |
| O=S(=O)(O)CCC(F)(F)C(F)(F)C(F)(F)C(F)(F)C(F)(F)C(F)(F)F | FALSE |
| CC(C)c1nnc2ccc(-c3ocnc3-c3cc(F)ccc3F)cn12 | FALSE |
| COc1cc2c(c(OC)c1OC)-c1ccc(OC)c(=O)cc1[C@@H](NC(C)=O)CC2 | FALSE |
| Cc1cccc(O)c1C | FALSE |
| NC(=O)NN=Cc1ccc([N+](=O)[O-])o1 | FALSE |
| CCCCC(CC)C(=O)OCCOCCOCCOC(=O)C(CC)CCCC (stereo not given) | FALSE |
| O=c1[nH]cnc2c1ncn2[C@H]1CC[C@@H](CO)O1 | FALSE |
| c1ccc(C(O[C@@H]2CCCN(CCc3ccc4c(c3)OCO4)C2)c2ccccc2)cc1 | TRUE |
| O=C(O)[C@H](O)[C@@H](O)C(=O)O | FALSE |
| S=P(N1CC1)(N1CC1)N1CC1 | FALSE |
| CC(C)C(=O)Nc1ccc([N+](=O)[O-])c(C(F)(F)F)c1 | TRUE |
| C=CCc1cc(S(=O)(=O)c2ccc(O)c(CC=C)c2)ccc1O | TRUE |
| O=C(Cl)C(F)(F)C(F)(F)C(F)(F)C(=O)Cl | FALSE |
| CCCCCCCC1CCC(=O)O1 (stereo not given) | FALSE |
| CCCCCCCC/C=C\CCCCCCCC(=O)OC[C@@H](O)[C@H]1OC[C@H](O)[C@H]1O | FALSE |

====

- assay.comment: APR_HepG2_MitoMembPot_72hr: Apredica 72-hour HepG2 Assay for Mitochondrial Membrane Potential (AID 2282917)
- study.conditions: imaging, actives raise or lower the signal
The source made the active and inactive calls. How the source made its calls: active means hit-call score of the fitted dose curve at least 0.9, where 1 is the maximum; inactive means score below 0.9.
Outcomes: t = active, f = inactive

| compound | class.name |
| --- | --- |
| NC(=O)N1c2ccccc2C=Cc2ccccc21 | f |
| CC[C@H](C)C(=O)O[C@H]1C[C@H](O)C=C2C=C[C@H](C)[C@H](CC[C@@H](O)C[C@@H](O)CC(=O)O)[C@H]21 | f |
| OC[C@H]1O[C@@H]2O[C@H]3[C@H](O)[C@@H](O)[C@@H](O[C@H]4[C@H](O)[C@@H](O)[C@@H](O[C@H]5[C@H](O)[C@@H](O)[C@@H](O[C@H]6[C@H](O)[C@@H](O)[C@@H](O[C@H]7[C@H](O)[C@@H](O)[C@@H](O[C@H]1[C@H](O)[C@H]2O)O[C@@H]7CO)O[C@@H]6CO)O[C@@H]5CO)O[C@@H]4CO)O[C@@H]3CO | f |
| CCCCCCCCN(C)C | f |
| CC(C)c1nnc2ccc(-c3ocnc3-c3cc(F)ccc3F)cn12 | f |
| CCCCCCOC(=O)CC(CC(=O)OCCCCCC)(OC(=O)CCC)C(=O)OCCCCCC | f |
| O=C(NO)C1(NS(=O)(=O)c2ccc(Oc3ccc(F)cc3)cc2)CCOCC1 | f |
| c1ccc(C(O[C@@H]2CCCN(CCc3ccc4c(c3)OCO4)C2)c2ccccc2)cc1 | f |
| OCC(CO)(CO)CO | f |
| O=C(O)c1ccc2c(c1)nc(C(=O)NC1CCN(C3CC3)CC1)n2Cc1cc(-c2ccc(Cl)s2)on1 | f |
| NC(N)=O | f |
| CCCCCCCCCC | f |
| COc1cc(C(C)C)c2c(c1)S(=O)(=O)N(COc1cc(=O)n3cccc(OCCN4CCCCC4)c3n1)C2=O | f |
| O=C(O)[C@H](O)[C@@H](O)C(=O)O | f |
| Nc1ccn([C@@H]2O[C@H](CO)[C@@H](O)[C@@H]2O)c(=O)n1 | f |
| Cn1c(=O)c2[nH]cnc2n(C)c1=O | f |
| OCCNCCO | f |
| CCOc1ccc2[nH]cc(C(=O)NCc3ccccc3)c(=O)c2n1 | f |
| OC(Cn1cncn1)(Cn1cncn1)c1ccc(F)cc1F | f |
| CCN(CC)C(=S)SSC(=S)N(CC)CC | t |
| Cc1ccc(S(=O)(=O)NC(=O)NN2CCCCCC2)cc1 | f |
| CC(C)C(=O)Nc1ccc([N+](=O)[O-])c(C(F)(F)F)c1 | f |
| CCCCCOC(C)=O | f |
| O=S(=O)(O)c1ccc(N=Nc2c(O)ccc3cc(S(=O)(=O)O)ccc23)cc1 | f |
| O=S1(=O)CCCO1 | f |
| O=c1[nH]cnc2c1ncn2[C@H]1CC[C@@H](CO)O1 | f |
| OCCOCCOCCO | f |
| C[C@@H](Oc1ccc(CNC(=O)c2cccnc2Oc2ccc3c(c2)OCO3)c(F)c1)C(=O)O | f |
| COc1cc2c(c(OC)c1OC)-c1ccc(OC)c(=O)cc1[C@@H](NC(C)=O)CC2 | f |
| CC(C)CC(C)O (stereo not given) | f |
| OC(CCl)CCl | f |
| CNC(C)=O | f |
| CCCCN1C(=O)[C@@H]([C@H](O)C2CCCCC2)NC(=O)C12CCN(Cc1ccc(Oc3ccc(C(=O)O)cc3)cc1)CC2 | f |
| Cc1nc(-c2ccccn2)ncc1C(=O)Nn1cc(C)c2cc(F)ccc21 | f |
| CCCCCCCC1CCC(=O)O1 (stereo not given) | f |
